src = patent US20210269525A1

- studySystem: T1, Cynomolgus CD3 epsilon Protein, His Tag (Acrobiosystems, Cat #CDE-05226) (cynomolgus (Macaca fascicularis), UniProt Q95LI5 22-117)
- T1 construct: also called monkey CD3e; not shown: His tag
- T1 sequence: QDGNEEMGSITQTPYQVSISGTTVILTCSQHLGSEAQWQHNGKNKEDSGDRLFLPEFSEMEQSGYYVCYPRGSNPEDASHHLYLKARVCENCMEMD
- testName: SPR (Biacore), cynomolgus CD3e His tag
- Procedure: The binding affinity of the anti-hCD3e antibodies with monkey CD3e (Cynomolgus CD3 epsilon Protein (SEQ ID NO: 39 AA Gln 22-Asp 117), His Tag, Acrobiosystems, Cat #CDE-05226) were also measured using surface plasmon resonance (SPR) using Biacore (Biacore, INC, Piscataway N.J.) by the methods as described in the examples.
recordedEndpoint: koff (s⁻¹)
Supply the numeric figure in s⁻¹, leaving out any unit text.

Known results for binders:
| binder | unitsOfMeasure | koff |
| --- | --- | --- |
| 1B1-H1K1-IgG1-LALA (antibody, V domains shown, Humanized; human IgG1 with LALA mutations; also called H1K1 (humanized 1B1)) VH: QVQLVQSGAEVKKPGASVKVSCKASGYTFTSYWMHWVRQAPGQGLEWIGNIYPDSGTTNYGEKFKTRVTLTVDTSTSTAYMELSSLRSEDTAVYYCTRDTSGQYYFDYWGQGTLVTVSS VL: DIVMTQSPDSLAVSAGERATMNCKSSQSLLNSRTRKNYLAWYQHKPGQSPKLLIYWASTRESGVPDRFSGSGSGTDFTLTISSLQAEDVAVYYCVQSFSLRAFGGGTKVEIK | s⁻¹ | 0.000869 |
| 1B1-H2K3-IgG1-LALA (antibody, V domains shown, Humanized; human IgG1 with LALA mutations; also called H2K3 (humanized 1B1)) VH: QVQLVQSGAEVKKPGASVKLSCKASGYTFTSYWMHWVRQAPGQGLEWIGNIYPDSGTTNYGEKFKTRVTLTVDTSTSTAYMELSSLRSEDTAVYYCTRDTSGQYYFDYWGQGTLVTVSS VL: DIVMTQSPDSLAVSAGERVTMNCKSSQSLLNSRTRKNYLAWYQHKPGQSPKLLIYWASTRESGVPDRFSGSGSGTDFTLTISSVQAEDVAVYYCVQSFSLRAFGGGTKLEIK | s⁻¹ | 0.000591 |
| C3E-30-1B1-mHvKv-IgG1-LALA (antibody, V domains shown, Chimeric) VH: QVQLQQPGSELVRPGASVKLSCKASGYTFTSYWMHWVKQRHGQGLEWIGNIYPDSGTTNYGEKFKTKGTLTVDTSSSTAYMHLSSLTSEDSAVYYCTRDTSGQYYFDYWGQGTTLTVSS VL: DIVMSQSPSSLAVSAGEKVTMSCKSSQSLLNSRTRKNYLAWYQHKPGQSPKLLIYWASTRESGVPDRFTGSGSGTDFTLTISSVQAEDLAVYYCVQSFSLRAFGGGTKLEIK | s⁻¹ | 0.00049 |
| 10A4-H2K2-IgG1-LALA (antibody, V domains shown, Humanized; human IgG1 with LALA mutations; also called H2K2 (humanized 10A4)) VH: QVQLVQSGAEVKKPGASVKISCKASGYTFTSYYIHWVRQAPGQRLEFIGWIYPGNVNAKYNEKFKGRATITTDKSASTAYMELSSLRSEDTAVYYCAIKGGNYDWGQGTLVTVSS VL: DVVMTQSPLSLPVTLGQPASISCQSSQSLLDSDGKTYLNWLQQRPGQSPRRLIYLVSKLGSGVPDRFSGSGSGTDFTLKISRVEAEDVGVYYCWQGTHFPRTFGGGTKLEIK | s⁻¹ | 0.000411 |

Continue with the binder presented below.
Give its koff value. Item: 10A4-H2K1-IgG1-LALA (antibody, V domains shown, Humanized; human IgG1 with LALA mutations; also called H2K1 (humanized 10A4)) VH: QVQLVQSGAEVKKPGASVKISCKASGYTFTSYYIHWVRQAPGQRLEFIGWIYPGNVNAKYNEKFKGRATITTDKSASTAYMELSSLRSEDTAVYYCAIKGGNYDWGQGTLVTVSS VL: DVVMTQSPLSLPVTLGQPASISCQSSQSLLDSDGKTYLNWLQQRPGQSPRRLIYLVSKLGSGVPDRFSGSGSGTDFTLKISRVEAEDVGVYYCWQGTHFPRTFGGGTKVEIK
0.000261
